System: Rattus norvegicus
Assay: Tested in vivo for GH-releasing potency against anesthetized male rats
Assay type: functional
Non-standard residues stand in square brackets, D forms with d. Residues, ends and D or L forms follow the SMILES beside them. d2Nal = N[C@H](Cc1ccc2ccccc2c1)C(=O)O; Aib = CC(C)(N)C(=O)O
Quick list: Emax per entry.
Please give a number only; it is taken to be in %.

Field: example entries. Status: answers known.
{"columns": ["Compound", "Tested system", "Endpoint", "Obs value"],
 "data": [
  ["CC(C)(N)C(=O)N[C@@H](Cc1c[nH]cn1)C(=O)N[C@H](Cc1ccc2ccccc2c1)C(=O)N[C@H](Cc1ccccc1)C(=O)N[C@@H](CCCCN)C(N)=O [IPAMORELIN] (H-[Aib]H[d2Nal][dF]K-NH2)", "Rattus norvegicus", "Emax", 120],
  ["CNCc1cccc(C(=O)N[C@H](Cc2ccc3ccccc3c2)C(=O)N[C@H](Cc2ccccc2)C(=O)N[C@@H](CCCCN)C(N)=O)c1", "Rattus norvegicus", "Emax", 30],
  ["CN(C(=O)[C@@H](Cc1ccc2ccccc2c1)NC(=O)[C@H](Cc1c[nH]cn1)NC(=O)C(C)(C)N)[C@H](Cc1ccccc1)C(=O)N[C@@H](CCCCN)C(N)=O", "Rattus norvegicus", "Emax", 90]
]}

Then this compound:
Prompt: Given the entry CN(C(=O)[C@@H](Cc1ccc2ccccc2c1)NC(=O)c1cccc(CN)c1)[C@H](Cc1ccccc1)C(=O)N[C@@H](CCCCN)C(N)=O , report its measured Emax.
Response: 90
